- assay.target: soluble FGFR2c receptor protein (human, UniProt P21802 148-377)
- Sequence (P21802 148-377): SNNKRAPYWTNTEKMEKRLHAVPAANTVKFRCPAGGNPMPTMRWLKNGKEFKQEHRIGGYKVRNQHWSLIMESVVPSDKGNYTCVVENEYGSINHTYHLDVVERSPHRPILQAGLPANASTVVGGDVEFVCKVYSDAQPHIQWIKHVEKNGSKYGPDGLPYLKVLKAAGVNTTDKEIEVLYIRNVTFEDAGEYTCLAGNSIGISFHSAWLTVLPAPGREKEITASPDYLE
- test: BLI Octet RED96, antibody on anti-hIgG Fc tip
measure: koff (s⁻¹)
The answer is to be given in s⁻¹; state only the numeric part.

Some binders with recorded koff:
>>> reported_value("Vh2 combined with the VL of Ab15 (antibody, V domains shown, captured on anti-human IgG Fc tips) VH: EVQLVESGGGVVQPGRSLRLSCAASGFTFSSYAMHWVRQAPGKGLEWVAVISYDGSNKYYADSVKGRFTISRDNSKNTLYLQMNSLRAEDTAVYYCARGAGRGYTYGPDGFDIWGQGTMVTVSS VL: DIVMTQTPLSLSVTPGQPASISCTSSRSLLHSDGKTYVYWYVQKSGQPPQLLIYELSNRFSGVPDRFSGSGSRTDFTLKISRVEAEDVGVYYCMQYIEAPLTFGGGTKVEIK")
0.00156
>>> reported_value("Vh1 combined with the VL of Ab15 (antibody, V domains shown, captured on anti-human IgG Fc tips) VH: EVQLVESGGGVVQPGRSLRLSCAASGFTFSSYAMHWVRQAPGKGLEWVAVISYDGSNKYYADSVKGRFTISRDNSKNTLYLQMNSLRAEDTAIYYCVRGAGRGYTYGPDGFDIWGQGTMVTVSS VL: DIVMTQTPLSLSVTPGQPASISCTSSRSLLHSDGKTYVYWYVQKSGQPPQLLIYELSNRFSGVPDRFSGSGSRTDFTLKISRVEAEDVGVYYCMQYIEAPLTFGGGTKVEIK")
0.0024
>>> reported_value("Vk12 combined with the VH of Ab15 (antibody, V domains shown, captured on anti-human IgG Fc tips) VH: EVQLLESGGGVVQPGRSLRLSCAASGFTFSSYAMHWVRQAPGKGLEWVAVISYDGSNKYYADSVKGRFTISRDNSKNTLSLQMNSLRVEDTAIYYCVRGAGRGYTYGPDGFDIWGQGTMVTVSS VL: DIVMTQSPLSLPVTPGEPASISCTSSRSLLHSDGKTYVYWYLQKPGQSPQLLIYELSNRFSGVPDRFSGSGSGTDFTLKISRVEAEDVGVYYCMQYIEAPLTFGGGTKVEIK")
0.0021

Sample Vk1 combined with the VH of Ab15 (antibody, V domains shown, captured on anti-human IgG Fc tips) VH: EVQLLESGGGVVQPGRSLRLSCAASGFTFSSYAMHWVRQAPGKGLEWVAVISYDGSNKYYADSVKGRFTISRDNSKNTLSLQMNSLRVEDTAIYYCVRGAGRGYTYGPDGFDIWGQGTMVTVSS VL: DIVMTQTPLSLSVTPGQPASISCTSSRSLLHSDGKTYLYWYLQKPGQPPQLLIYELSNRFSGVPDRFSGSGSRTDFTLKISRVEAEDVGVYYCMQYIEAPLTFGGGTKVEIK — what was its koff? 0.00245
